Documented growth across a set of compounds
Test system: NCI-H322M lung
Experiment: NCI-60 one-dose screen, 48 h (100 = growth as untreated, 0 = no growth, -100 = all killed)
Details: 10 µM unless noted
This is part of a sample that, as a whole, favours compounds with a hit. Of some 83,000 tested, about 20% had one in any assay.
value type: growth (%)

In [3]: df
Out[3]:
                         structure_notation    study_system  assay_value
0  COc1ccc(C(=O)c2cc(C(C)=O)c3c(C)cc(C)cn23)cc1  NCI-H322M lung         76.8
1  Cc1cn(-c2cc(NC(=O)c3ccc(C)c(-n4cc(-c5cnc6cccnn56)nn4)c3)cc(C(F)(F)F)c2)cn1  NCI-H322M lung          106
2  O=C1c2cccc3c(N4CCN(c5ccccc5)CC4)ccc(c23)C(=O)N1c1cccc(-c2nn(-c3ccccc3)cc2-c2nc3ccccc3s2)c1  NCI-H322M lung           97
3  COC(=O)c1cc(C(=O)C(F)(F)F)n2c3ccccc3c3ccccc3c12  NCI-H322M lung         90.8

* * *

System: NCI-H23 lung
Assay: NCI-60 one-dose screen, 48 h
Details: 10 µM unless noted
Compounds without any hit were thinned out: in the full panel of roughly 83,000, 20% have a hit. Calls of active or inactive are those of the source. Rule for the calls: active = growth percent below 10; inactive = the rest.
Labels: yes for active, no for inactive

>>> df
                                    molecule  study_system  label_value
 0      COc1ccc(-c2cc(C)nc3[nH]c(=O)sc23)cc1  NCI-H23 lung           no
 1  C/C(=N/O)c1ccc(NC(=O)CSc2nnc(-c3ccc(-c4nc5ccc(Cl)cc5[nH]4)cc3)o2)cc1  NCI-H23 lung          yes
 2  COc1cc(C2CC(c3cc(OC)c(OC)c(OC)c3)=Nc3c(N)nc(N)nc3N2)ccc1Oc1nc(Nc2ccc(F)cc2)nc(N(C)C)n1 (centres undefined)  NCI-H23 lung           no
 3  CC1=NN(C2=NC(=O)C(CC(=O)Nc3ccccc3C(F)(F)F)S2)C(c2ccc(N(C)C)cc2)C1 (centres undefined)  NCI-H23 lung           no
 4  O=C(CSc1nc2ccccc2c(=O)[nH]1)NNC(=O)c1ccccc1Cl  NCI-H23 lung           no
 5  COc1cc(C2CC(c3ccc(C(F)(F)F)cc3)=Nc3c(N)nc(N)nc3N2)ccc1Oc1nc(Nc2ccc(F)cc2)nc(N(C)C)n1 (centres undefined)  NCI-H23 lung           no
 6  CCCCCCCCCc1ccc(C(=O)Nc2cc(C)ccc2C(=O)OC)cc1  NCI-H23 lung           no
 7  O=C(COc1ccc(/C=C2/C(=O)Nc3ccc(Cl)cc32)cc1)Nc1ccc(Br)cc1  NCI-H23 lung          yes
 8  CNS(=O)(=O)N1CCc2c(Br)c3c(c(OC)c2C1CCc1ccccc1)OCO3 (centres undefined)  NCI-H23 lung          yes
 9  COc1ccc2[nH]c(=O)c(CSc3ccccc3Nc3nccc(-c4ccc5c(c4)OCO5)n3)cc2c1  NCI-H23 lung           no
10  O=C(CSc1nnc(-c2ccc(-c3nc4ccccc4[nH]3)cc2)o1)Nc1ccc(Br)cc1  NCI-H23 lung          yes
11  Cc1nc(N)ncc1-c1ccc2ncnc(N3CCc4cc(F)c(Cl)cc43)c2c1  NCI-H23 lung           no
12  O=C1CCC(N2C(=O)c3cccc(NCCCCCC(=O)N4CCN(c5ccc6nc7c(nc6c5C(F)(F)F)C(=O)c5ncccc5C7=O)CC4)c3C2=O)C(=O)N1 (centres undefined)  NCI-H23 lung          yes
13  COc1ccc2[nH]c(O)c(N=Nc3nc(-c4ccc(Br)cc4)cs3)c2c1  NCI-H23 lung          yes

Source listed as PubChem BioAssay (NCI).
